Data export: IC50 values recorded with Melanin-concentrating hormone receptor 1 (Homo sapiens, UniProt Q99705).
Sequence (Q99705 whole entry): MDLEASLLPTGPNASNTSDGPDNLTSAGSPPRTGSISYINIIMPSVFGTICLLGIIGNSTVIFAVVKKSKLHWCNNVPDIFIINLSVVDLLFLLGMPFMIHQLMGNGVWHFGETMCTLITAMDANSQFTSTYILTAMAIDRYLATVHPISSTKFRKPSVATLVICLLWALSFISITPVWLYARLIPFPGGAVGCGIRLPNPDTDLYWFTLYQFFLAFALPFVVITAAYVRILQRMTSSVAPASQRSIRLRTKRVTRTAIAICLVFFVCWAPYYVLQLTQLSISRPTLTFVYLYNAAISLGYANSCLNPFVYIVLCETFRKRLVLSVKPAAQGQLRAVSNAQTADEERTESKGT
Give the value in nM but do not write nM after it.

smiles.repr: CCCc1cc(N)c2cc(NC(=O)/C=C/c3ccc(-c4ccccc4)cc3)ccc2n1
unit.tag: nM
value: 1.1

# input molecule: `CCCc1cc(N)c2cc(NCCCc3ccc(C(F)(F)F)cc3)ccc2n1` ; wanted: its IC50 180

Fill blank: measured IC50 of the molecule `CCc1cc(N)c2cc(NC(=O)/C=C/c3ccc(C(F)(F)F)cc3)ccc2n1` is ____. 1.2

IC50 for `CCCc1cc(N)c2cc(NC(=O)/C=C/c3cccc(Cl)c3)ccc2n1` ? 1100

Give the measured IC50 of `CCCc1cc(N)c2cc(NC(=O)/C=C/c3ccc(C(C)(C)C)cc3)ccc2n1` . 22

---

IC50 data for Melanin-concentrating hormone receptor 1 (Homo sapiens) follow.
Report as a plain number; the unit nM is understood.

Entry `CCCCc1ccc(/C=C/C(=O)Nc2ccc3nc(CCC)cc(N)c3c2)cc1` : reported IC50 = ? 45

Fill in: IC50 of `CCCc1cc(N)c2cc(NC(=O)c3ccc(C(F)(F)F)cc3)ccc2n1` is ___ 10000

Which IC50 value is on record for `CCCc1cc(N)c2cc(NC(=O)Cc3ccc(C(F)(F)F)cc3)ccc2n1` ? 4000

Item `CCCc1cc(N)c2cc(C(=O)NCCc3ccc(C(F)(F)F)cc3)ccc2n1` has what recorded IC50? 2700

Sample `CCCc1cc(N)c2cc(NC(=O)/C=C/c3ccc(Cl)c(Cl)c3)ccc2n1` — what was its IC50? 60

I would be grateful if you could share the reported IC50 for `CCCc1cc(N)c2cc(NC(=O)CCc3ccc(C(F)(F)F)cc3)ccc2n1` . 13

---

This listing pairs compounds with measured EC50.
assayed.system: Melanin-concentrating hormone receptor 1 (Homo sapiens, UniProt Q99705)
procedure.details: Stimulation of IP3-coupled mobilization of calcium in HEK293 cells expressing MCH-R1
Just the number in nM, nothing appended.

Past entries and their recorded results:
smiles.repr: CCCc1cc(N)c2cc(NC(=O)CCc3ccc(C(F)(F)F)cc3)ccc2n1
value: 120
//
smiles.repr: Nc1cc(C2CCC2)nc2ccc(NC(=O)/C=C/c3ccc(C(F)(F)F)cc3)cc12
value: 250
//
smiles.repr: CCCc1cc(N)c2cc(NC(=O)/C=C/c3ccc(I)cc3)ccc2n1
value: 280
//
smiles.repr: Nc1cc(C2CCCCC2)nc2ccc(NC(=O)/C=C/c3ccc(C(F)(F)F)cc3)cc12
value: 96

Name the recorded EC50 for `CCCc1cc(N)c2cc(NC(=O)/C=C/c3ccc(Br)cc3)ccc2n1` . 93

Give its EC50 value. Item: `CC(C)(C)Cc1cc(N)c2cc(NC(=O)/C=C/c3ccc(C(F)(F)F)cc3)ccc2n1` 110

---

# reported inhibition; entries follow
assayed.system: Melanin-concentrating hormone receptor 2 (Homo sapiens, UniProt Q969V1)
Sequence (Q969V1 whole entry): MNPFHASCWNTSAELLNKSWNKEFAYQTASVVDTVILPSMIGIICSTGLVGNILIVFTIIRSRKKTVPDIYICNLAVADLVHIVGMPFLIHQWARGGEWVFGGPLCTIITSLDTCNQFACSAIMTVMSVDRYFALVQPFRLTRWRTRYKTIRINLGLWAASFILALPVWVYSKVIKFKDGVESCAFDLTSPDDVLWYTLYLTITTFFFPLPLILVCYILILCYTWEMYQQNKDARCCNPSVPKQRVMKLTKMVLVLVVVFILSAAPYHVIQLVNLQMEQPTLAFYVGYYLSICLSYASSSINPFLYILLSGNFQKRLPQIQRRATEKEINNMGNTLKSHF
procedure.details: Inhibition of 125I-[Phe13,Tyr19]-MCH binding to human MCH-R2 at 2uM

Solved cases below.
compound: CCC(C)c1cc(N)c2cc(NC(=O)/C=C/c3ccc(C(F)(F)F)cc3)ccc2n1 (stereo not given)
inhibition: < 50%

compound: CCCc1cc(N)c2cc(NC(=O)NCc3ccc(C(F)(F)F)cc3)ccc2n1
inhibition: < 50%

compound: Cc1cc(N)c2cc(NC(=O)/C=C/c3ccc(C(F)(F)F)cc3)ccc2n1
inhibition: < 50%

compound: CCCc1cc(N)c2cc(NC(=O)/C=C/c3ccc(SC)cc3)ccc2n1
inhibition: < 50%

compound: CCCCc1ccc(/C=C/C(=O)Nc2ccc3nc(CCC)cc(N)c3c2)cc1
inhibition: < 50%

compound: CCCc1cc(NC2CC2)c2cc(NC(=O)/C=C/c3ccc(C(F)(F)F)cc3)ccc2n1
inhibition: < 50%

compound: CCCc1ccc(/C=C/C(=O)Nc2ccc3nc(CCC)cc(N)c3c2)cc1
inhibition: < 50%

compound: CCCc1cc(N)c2cc(NC(=O)c3ccc(C(F)(F)F)cc3)ccc2n1
inhibition: < 50%

compound: CCCc1cc(NC)c2cc(NC(=O)/C=C/c3ccc(C(F)(F)F)cc3)ccc2n1
inhibition: < 50%

compound: CC(C)(C)Cc1cc(N)c2cc(NC(=O)/C=C/c3ccc(C(F)(F)F)cc3)ccc2n1
inhibition: < 50%

For the compound shown here, `CCCc1cc(N)c2cc(NC(=O)/C=C/c3ccc(C)cc3)ccc2n1` , give the reported inhibition. < 50%

I have this compound here, `CCCc1cc(N)c2cc(NC(=O)/C=C/c3cccc(Cl)c3)ccc2n1` , and I need its recorded inhibition. < 50%

What inhibition value was documented for this compound, `CCCc1cc(N)c2cc(NC(=O)/C=C/c3ccc(N)cc3)ccc2n1` ? < 50%
